methodDescription: Selectivity index, ratio of CC50 for African green monkey Vero cells to IC50 for Leishmania donovani MHOM/NP/02/BPK282/0c14
Type: toxicity
appliedConditions: read-out: Ratio CC50/IC50
endpoint: selectivity ratio

compound=C#CCOc1ccc(C(=O)/C=C/c2ccncc2)c(OC)c1 endpoint="selectivity ratio" measuredresult=5
compound=COc1cc(OCC=C(C)C)ccc1C(=O)/C=C/c1ccncc1 endpoint="selectivity ratio" measuredresult=1.5
compound=C#CCOc1ccc(C(=O)/C=C/c2ccc(F)cc2)c(OCC#C)c1 endpoint="selectivity ratio" measuredresult=48
compound="C[C@@H]1[C@H](O)[C@@H](C)/C=C/C=C/C=C/C=C/C=C/C=C/C=C/[C@H](O[C@@H]2O[C@H](C)[C@@H](O)[C@H](N)[C@@H]2O)C[C@@H]2O[C@](O)(C[C@@H](O)C[C@@H](O)[C@H](O)CC[C@@H](O)C[C@@H](O)CC(=O)O[C@H]1C)C[C@H](O)[C@H]2C(=O)O [AMPHOTERICIN B]" endpoint="selectivity ratio" measuredresult=666
compound=C#CCOc1ccc(C(=O)/C=C/c2ccc(Br)cc2)c(OCC#C)c1 endpoint="selectivity ratio" measuredresult=28
compound=C#CCOc1ccc(C(=O)/C=C/c2cccnc2)c(OCC#C)c1 endpoint="selectivity ratio" measuredresult=1.5
compound=CC(C)=CCOc1ccc(C(=O)/C=C/c2cccnc2)c(O)c1 endpoint="selectivity ratio" measuredresult=24.7
compound=COc1cc(OCC=C(C)C)ccc1C(=O)/C=C/c1cccnc1 endpoint="selectivity ratio" measuredresult=2

Taken from ChEMBL document CHEMBL4152258.
